The reported measurements were obtained from ChEMBL document CHEMBL1133466.

Each item that follows carries a reported log10 of IC50.
# Tested on: Plasmodium falciparum
# ASSAY SUMMARY: Antimalarial activity against chloroquine-sensitive Plasmodium falciparum D6
# Type: functional, organism-based
On a log10 scale: recorded IC50, unit nM.

COMPOUND	log10 of IC50
CC1CCC2(CC1C)OOC1(CCC(C)C(C)C1)OO2 (configuration not stated)	1.08

### Prompt Indicate the recorded log10 of IC50 value for this compound: CC1CCC(C)C2(C1)OOC1(CC(C)CCC1C)OO2 (configuration not stated)
### Response 1.18

### Prompt Indicate the recorded log10 of IC50 value for this compound: CC1CCC(C(C)C)C2(C1)OOC1(CC(C)CCC1C(C)C)OO2 (configuration not stated)
### Response 1.67

### Prompt Indicate the recorded log10 of IC50 value for this compound: CC[C@@H]1CCCCC12OOC1(CCCC[C@@H]1CC)OO2 (some centres not stated)
### Response 1.36

### Prompt Indicate the recorded log10 of IC50 value for this compound: CC1CCCC2(OOC3(CCCC(C)C3C)OO2)C1C (configuration not stated)
### Response 1.70

### Prompt Indicate the recorded log10 of IC50 value for this compound: CC1CCC2(OOC3(CCC(C)CC3C)OO2)C(C)C1 (configuration not stated)
### Response 2.04

* * *

Each item that follows carries a reported pIC50.
# Tested on: Plasmodium falciparum
# ASSAY SUMMARY: Antimalarial activity against chloroquine-sensitive Plasmodium falciparum D6
# Assay type: functional, organism-based
Scale: pIC50 equals -log10([C]), with [C] in mol/L.

A selection of reference data follows.
COMPOUND	OBSERVED MEASUREMENT
CCC[C@@H]1CCCCC12OOC1(CCCC[C@@H]1CCC)OO2 (some centres not stated)	7.08
CC(C)(C)C1CCC2(CC1)OOC1(CCC(C(C)(C)C)CC1)OO2 (configuration not stated)	6.70

### Prompt Indicate the recorded pIC50 value for this compound: CCO[C@H]1O[C@@H]2O[C@@]3(C)CC[C@H]4[C@H](C)CC[C@@H]([C@H]1C)[C@@]24OO3
### Response 8.57

### Prompt Indicate the recorded pIC50 value for this compound: C[C@@H]1CC[C@H]2[C@@H](C)C(=O)O[C@@H]3O[C@@]4(C)CC[C@@H]1[C@]32OO4
### Response 8.08

* * *

Each item that follows carries a reported IC50.
# Tested on: Plasmodium falciparum
# ASSAY SUMMARY: Antimalarial activity against chloroquine-sensitive Plasmodium falciparum D6
# Assay type: functional, organism-based
Hi! Could you send only the number? It should be in nM, unit omitted.

A selection of reference data follows.
COMPOUND	IC50 / nM
CC(C)C1CCC(C)C2(C1)OOC1(CC(C(C)C)CCC1C)OO2 (stereo unspecified)	140
C[C@@H]1CCCCC12OOC1(CCCC[C@@H]1C)OO2 (stereo partly specified)	55
CC1CC(C)CC2(C1)OOC1(CC(C)CC(C)C1)OO2 (stereo unspecified)	30
CC1CCC2(CC1)OOC1(CCC(C)CC1)OO2 (stereo unspecified)	23

Continue with the next compound.
### Prompt Indicate the recorded IC50 value for this compound: CC1CCCC2(C1)OOC1(CCCC(C)C1)OO2 (stereo unspecified)
### Response 76

* * *

# Test system: Plasmodium falciparum
# ASSAY SUMMARY: Antimalarial activity against chloroquine-sensitive Plasmodium falciparum D6
# Format: functional, organism-based
pIC50: −log10 of the molar value.
READOUT NAME: pIC50

A selection of reference data follows.
COMPOUND	pIC50
CC1CC(C)(C)CCC12OOC1(CCC(C)(C)CC1C)OO2 (stereo not drawn)	< 6.00
CC1(C)CCC2(CC1)OOC1(CCC(C)(C)CC1)OO2	< 6.00

### Prompt State, for Plasmodium falciparum, measured pIC50 of the compound listed here: CC1(C)CC(C)(C)CC2(C1)OOC1(CC(C)(C)CC(C)(C)C1)OO2
### Response < 6.00
